# assay.overview: Inhibition of Escherichia coli TrmD using S-[methyl-3H] adenosyl-L-methionine as substrate assessed as leucine-tRNA methylation after 1 hr by scintillation proximity assay
pIC50: −log10 of the molar value.
Given measured pIC50, output Satisfied if it is greater than or equal to 5 and Not satisfied if not.

molecule: O=c1[nH]cnc2[nH]cc(-c3ccccc3)c12
assigned.category: Not satisfied

molecule: NC1CCN(Cc2ccc(CNC(=O)c3csc4nc[nH]c(=O)c34)cc2)CC1
assigned.category: Satisfied

molecule: NC1CN(Cc2ccc(CNC(=O)c3csc4nc[nH]c(=O)c34)cc2)C1
assigned.category: Satisfied

molecule: N=C(N)c1ccc(CNC(=O)c2csc3nc[nH]c(=O)c23)cc1
assigned.category: Satisfied

molecule: O=C(NCc1ccc(CO)cc1)c1csc2nc[nH]c(=O)c12
assigned.category: Satisfied

molecule: O=C(NCc1ccc(-c2ccccc2)cc1)c1csc2nc[nH]c(=O)c12
assigned.category: Not satisfied

molecule: O=c1[nH]cnc2scc(C3CCNC3)c12 (stereo unspecified)
assigned.category: Not satisfied

molecule: O=C(NCc1ccc(CN2CCC(O)CC2)cc1)c1csc2nc[nH]c(=O)c12
assigned.category: Satisfied

molecule: NC(=O)c1ccc(CNC(=O)c2csc3nc[nH]c(=O)c23)cc1
assigned.category: Satisfied

molecule: O=C(NCc1ccc(CN2CCC(O)C2)cc1)c1csc2nc[nH]c(=O)c12 (stereo unspecified)
assigned.category: Satisfied

* * *

# assay.overview: Inhibition of Escherichia coli TrmD using S-[methyl-3H] adenosyl-L-methionine as substrate assessed as leucine-tRNA methylation after 1 hr by scintillation proximity assay
pIC50: −log10 of the molar value.

record.smiles: O=C(NCc1ccc(CN2CC[C@H](O)C2)cc1)c1csc2nc[nH]c(=O)c12
result.operator: =
pIC50: 6.40

record.smiles: NCCNCc1ccc(CNC(=O)c2csc3nc[nH]c(=O)c23)cc1
result.operator: =
pIC50: 6.36

record.smiles: N=C(NCc1ccc(CNC(=O)c2csc3nc[nH]c(=O)c23)cc1)NC1CC1
result.operator: =
pIC50: 6.72

record.smiles: O=C(NCc1ccc(CNCc2ncc[nH]2)cc1)c1csc2nc[nH]c(=O)c12
result.operator: =
pIC50: 6.28

record.smiles: Cc1ccc(-c2csc3ncnc(O)c23)cc1
result.operator: =
pIC50: 5.16

record.smiles: O=c1[nH]cnc2[nH]nc(-c3ccccc3)c12
result.operator: <
pIC50: 3.70

* * *

# tgt: UniProt:Q99873
# Sequence (Q99873 whole entry, looked up): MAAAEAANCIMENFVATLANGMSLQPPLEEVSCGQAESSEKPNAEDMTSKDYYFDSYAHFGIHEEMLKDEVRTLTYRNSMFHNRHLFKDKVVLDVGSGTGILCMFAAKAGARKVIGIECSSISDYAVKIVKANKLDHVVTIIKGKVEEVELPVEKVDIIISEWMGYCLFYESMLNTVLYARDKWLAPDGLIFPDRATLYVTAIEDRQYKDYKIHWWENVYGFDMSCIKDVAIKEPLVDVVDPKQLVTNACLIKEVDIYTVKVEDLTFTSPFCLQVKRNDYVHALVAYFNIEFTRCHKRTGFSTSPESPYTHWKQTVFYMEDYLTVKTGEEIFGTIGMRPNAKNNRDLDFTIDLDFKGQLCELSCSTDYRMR
# assay.overview: Inhibition of human PRMT1 at 20 uM relative to control
assay.readout: inhibition

molecule: NCc1ccc(CNC(=O)c2csc3nc[nH]c(=O)c23)cc1
tgt: UniProt:Q99873
assay.readout: inhibition
test.value: < 10%
--
molecule: O=C(NCc1ccc(CN2CCNCC2)cc1)c1csc2nc[nH]c(=O)c12
tgt: UniProt:Q99873
assay.readout: inhibition
test.value: < 10%
--
molecule: NCCNCc1ccc(CNC(=O)c2csc3nc[nH]c(=O)c23)cc1
tgt: UniProt:Q99873
assay.readout: inhibition
test.value: < 10%
--
molecule: O=C(NCc1ccc(CNCc2ncc[nH]2)cc1)c1csc2nc[nH]c(=O)c12
tgt: UniProt:Q99873
assay.readout: inhibition
test.value: < 10%
--
molecule: N=C(NCc1ccc(CNC(=O)c2csc3nc[nH]c(=O)c23)cc1)NC1CC1
tgt: UniProt:Q99873
assay.readout: inhibition
test.value: < 10%
--
molecule: O=C(NCc1ccc(CN2CCC(O)CC2)cc1)c1csc2nc[nH]c(=O)c12
tgt: UniProt:Q99873
assay.readout: inhibition
test.value: < 10%
--
molecule: NC1CCN(Cc2ccc(CNC(=O)c3csc4nc[nH]c(=O)c34)cc2)CC1
tgt: UniProt:Q99873
assay.readout: inhibition
test.value: < 10%
--
molecule: O=C(NCc1ccc(CN2CCC(O)C2)cc1)c1csc2nc[nH]c(=O)c12 (stereo not given)
tgt: UniProt:Q99873
assay.readout: inhibition
test.value: < 10%
--
molecule: NC1CCCN(Cc2ccc(CNC(=O)c3csc4nc[nH]c(=O)c34)cc2)C1 (stereo not given)
tgt: UniProt:Q99873
assay.readout: inhibition
test.value: < 10%
--
molecule: NCCN1CCN(Cc2ccc(CNC(=O)c3csc4nc[nH]c(=O)c34)cc2)CC1
tgt: UniProt:Q99873
assay.readout: inhibition
test.value: < 10%

* * *

Reported pIC50 is given for each of the following compounds.
# assay.overview: Inhibition of Escherichia coli TrmD using S-[methyl-3H] adenosyl-L-methionine as substrate assessed as leucine-tRNA methylation after 1 hr by scintillation proximity assay
pIC50: −log10 of the molar value.
assay.readout: pIC50

record.smiles: O=C(NCc1ccc(CN2CCCC2)cc1)c1csc2nc[nH]c(=O)c12
assay.readout: pIC50
test.value: 6.17
//
record.smiles: COCCNCc1ccc(CNC(=O)c2csc3nc[nH]c(=O)c23)cc1
assay.readout: pIC50
test.value: 5.89
//
record.smiles: NCc1ccc(CNC(=O)c2csc3nc[nH]c(=O)c23)cc1
assay.readout: pIC50
test.value: 6.04

* * *

# assay.overview: Inhibition of Escherichia coli TrmD using S-[methyl-3H] adenosyl-L-methionine as substrate assessed as leucine-tRNA methylation after 1 hr by scintillation proximity assay
pIC50: −log10 of the molar value.
Given measured pIC50, output fulfilled if it is greater than or equal to 5 and not fulfilled if not.

record.smiles: NCCN1CCN(Cc2ccc(CNC(=O)c3csc4nc[nH]c(=O)c34)cc2)CC1
assigned.category: fulfilled

record.smiles: O=c1[nH]cnc2onc(-c3ccccc3)c12
assigned.category: fulfilled

record.smiles: O=C(NCc1ccc(CNCCO)cc1)c1csc2nc[nH]c(=O)c12
assigned.category: fulfilled

record.smiles: O=C(NCc1ccncc1)c1csc2nc[nH]c(=O)c12
assigned.category: not fulfilled

record.smiles: Cn1cc(-c2csc3nc[nH]c(=O)c23)cn1
assigned.category: fulfilled

record.smiles: CCCNCc1ccc(CNC(=O)c2csc3nc[nH]c(=O)c23)cc1
assigned.category: fulfilled

record.smiles: O=C(NCc1ccccn1)c1csc2nc[nH]c(=O)c12
assigned.category: not fulfilled
